Field: TGI. Provide a value for each of the compounds that follow.
test system: HOP-62 NSCLC; experiment: NCI tumour cell line growth inhibition, 48 h

Past entries and their recorded results:
{"columns": ["compound", "TGI"],
 "data": [
  ["Cc1cc(-c2nc3cccc(O)c3s2)ccc1N", "> 100 µM"],
  ["O=C1/C(=C/c2ccc(F)cc2)CN(C(=O)CCN2CCC(=NO)CC2)C/C1=C\\c1ccc(F)cc1", "6.02 µM"],
  ["COc1ccc2nc(C(=O)c3ccccc3)c(C)cc2c1", "37.1 µM"],
  ["CCCCCCCC1(c2ccc(N)cc2)CCC(=O)NC1=O (centres undefined)", "> 100 µM"],
  ["CCOC(=O)C1=C(O)c2ccc(C)cc2C(=O)C1=O", "> 100 µM"],
  ["CC(=O)O[C@H]1CC2C(C3CCC(C(C)CCC(N)=O)[C@]31C)[C@H](OC(C)=O)C[C@@H]1CC3(CC[C@]21C)OOC1(CC[C@]2(C)C4C[C@H](OC(C)=O)[C@]5(C)C(C(C)CCC(N)=O)CCC5C4[C@H](OC(C)=O)C[C@@H]2C1)OO3 (some centres undefined)", "3.86 µM"],
  ["CC1(C)Oc2ccc3c(=O)cc(-c4ccccc4)oc3c2C1C(=O)O (centres undefined)", "> 100 µM"],
  ["CS(=O)(=O)c1ccc(Nc2nc(N[C@H]3CCCC[C@H]3N)nc3cc[nH]c(=O)c23)cc1", "> 100 µM"]
]}

Could you share which TGI value was measured for COC(NC(=O)Nc1ccccc1C)(C(F)(F)F)C(F)(F)F ?
> 100 µM
